meta.source: patent US6218431A

biological target: glucagon receptor (Homo sapiens, UniProt P47871); construct: expressed in transfected cells; host or cells: Chinese Hamster Ovary cells (CHO-HGR), membranes; assay: glucagon receptor binding assay (125I-glucagon, CHO-HGR membranes); conditions: 125I-glucagon; 60 min at room temperature; read-out: IC50
Sequence (P47871 26-477): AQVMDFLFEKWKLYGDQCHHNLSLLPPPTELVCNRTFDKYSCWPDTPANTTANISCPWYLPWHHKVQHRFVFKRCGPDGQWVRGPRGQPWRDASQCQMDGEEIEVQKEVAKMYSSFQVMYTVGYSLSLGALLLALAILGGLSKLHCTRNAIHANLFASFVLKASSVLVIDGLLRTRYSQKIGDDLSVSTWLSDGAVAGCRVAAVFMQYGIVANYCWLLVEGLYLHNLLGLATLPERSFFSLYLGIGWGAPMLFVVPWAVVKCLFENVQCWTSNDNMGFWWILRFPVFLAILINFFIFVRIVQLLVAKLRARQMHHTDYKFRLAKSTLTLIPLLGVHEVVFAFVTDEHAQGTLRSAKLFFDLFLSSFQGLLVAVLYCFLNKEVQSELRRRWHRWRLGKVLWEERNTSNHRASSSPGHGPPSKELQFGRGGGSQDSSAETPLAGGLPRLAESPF
property.label: IC50 (nM)

CC(C)c1nc(C(C)C)c(CO)c(-c2ccc(F)cc2)c1C=C1CCCC1 [Example 31] | 2600
C=CCOCc1nc(C(C)C)c(CO)c(-c2ccc(F)cc2)c1CCCCC [Example 203] | 6300
CCc1c(C(C)C)cc(C(C)C)c(C(C)O)c1-c1ccc(F)cc1 (single isomer, unassigned; (+)) [Example 244] | 180
CCCCCC=Cc1c(C(C)C)nc(C(C)C)c(CO)c1-c1ccc(F)cc1 [Example 32] | 1100
Cc1ccccc1CCCc1c(C(C)C)nc(C(C)C)c(CO)c1-c1ccc(F)cc1 [Example 84] | 1900

1: CC=Cc1c(C(C)C)nc(C(C)C)c(CO)c1-c1ccccc1 [Example 12]
2: CC(C)c1cc(C(C)C)c(CSc2cc(Cl)cc(Cl)c2)c(-c2ccc(F)cc2)c1CO [Example 285]
(Q) Could you kindly indicate whether 1 or 2 has the higher IC50 value? Please respond with the label that marks your chosen entry.
(A) 2
(2: 9000 nM, 1: 1700 nM)

---

target: glucagon receptor (Homo sapiens, UniProt P47871); construct: expressed in transfected cells; host or cells: Chinese Hamster Ovary cells (CHO-HGR), membranes; experiment: glucagon receptor binding assay (125I-glucagon, CHO-HGR membranes); details: 20 μM; reported where 20 μM did not reduce glucagon binding by 50%
property.label: inhibition at 20 µM (%)

Previously resolved entries follow.
CCC(O)c1c(C(C)C)nc(C(C)C)c(CO)c1-c1ccc(F)cc1 (racemic) | 38.5
CCCC=Cc1c(C(C)C)nc(C(C)C)c(CO)c1-c1ccccc1C | 34
CCCC=Cc1c(C(C)C)nc(C(C)C)c(CO)c1-c1ccc(SC)cc1 | 33.4

I: CCCCCc1c(C(C)C)nc(C(C)C)c(CO)c1-c1ccccc1OC
II: CC(C)c1nc(C(C)C)c(CSc2ccc(O)cc2)c(-c2ccc(F)cc2)c1CO
III: CCCC=Cc1c(C(C)C)nc(C(C)C)c(CO)c1-c1cccc(Cl)c1
(Q) I would appreciate it if you could sort these 3 molecules by inhibition at 20 µM, starting from the smallest number. As an answer, provide the labels arranged in the order called for.
(A) II, I, III
(II: 15.7%, I: 27.4%, III: 41.4%)

A: CCCCCc1c(C(C)C)nc(C(C)C)c(CCO)c1-c1ccc(F)cc1
B: CCCCCc1c(C(C)C)nc(C(C)C)c(CO)c1-c1ccc(F)c(C(C)O)c1 (stereo not shown)
C: C=CCC(O)c1c(C(C)C)nc(C(C)C)c(CCCCC)c1-c1ccc(F)cc1 (racemic)
(Q) Order field: inhibition at 20 µM | Direction: descending (largest first) Response format: the labels, sorted as the prompt asks.
(A) B, A, C
(B: 49.1%, A: 30.2%, C: 17%)

---

molecular target: glucagon receptor (Homo sapiens, UniProt P47871); construct: expressed in transfected cells; host or cells: Chinese Hamster Ovary cells (CHO-HGR), membranes; test: glucagon receptor binding assay (125I-glucagon, CHO-HGR membranes); conditions: 20 μM; reported where 20 μM did not reduce glucagon binding by 50%
property.label: inhibition at 20 µM (%)

Some solved entries appear below for comparison.
CCCC=Cc1c(C)nc(C)c(CO)c1-c1ccccc1 | 1.52
CCCCCc1c(C(C)C)nc(C(C)C)c(CO)c1-c1ccc(C(C)C)cc1 | 34.4
CC(C)c1nc(C(C)C)c(CCCCCCCCC(=O)O)c(-c2ccc(F)cc2)c1CO | 14.2
CC(C)c1nc(C(C)C)c(Cn2ccnc2)c(-c2ccc(F)cc2)c1CO | 5.18
CCCCCc1c(C(C)C)nc(C(C)C)c(CN(C)C)c1-c1ccc(F)cc1 | 7.54

a: CCCCCc1c(CN2CCOCC2)nc(C(C)C)c(CO)c1-c1ccc(F)cc1
b: CC(C)c1nc(C(C)C)c(CN2CCN(c3ccccc3)CC2)c(-c2ccc(F)cc2)c1CO
(Q) Parameter check: reported inhibition at 20 µM is higher for which label, a or b ? Which one? Tell me its label.
(A) b

A: CCCCCc1c(C(C)C)nc(C(C)C)c(CNCC)c1-c1ccc(F)cc1
B: CC(C)c1nc(C(C)C)c(CCCC(=O)O)c(-c2ccc(F)cc2)c1CO
(Q) // max by inhibition at 20 µM over [ A , B ] Please identify the chosen entry by its label.
(A) A

A: C=CC(O)c1nc(C(C)C)c(CO)c(-c2ccc(F)cc2)c1CCCCC (stereo not drawn)
B: CCCC=Cc1c(C(C)C)nc(C(C)C)c(CO)c1-c1ccc(S(C)(=O)=O)cc1
(Q) I'm curious whether A or B has the smaller inhibition at 20 µM number. Which is it? Lab log: write the label of the selected item as the result.
(A) B
